- Measured Target: T1, His-tagged PCSK9Δhelix (human, UniProt Q8NBP7 31-152; Q8NBP7 168-692)
- T1 construct: Construct M1-Q692 with engineered TEV site, cut by TEV protease; new N-terminus of the catalytic domain is S-A168; also called His-PCSK9Δhelix
- T1 sequence (Q8NBP7 31-152, stated change not applied, chain 1 of 2): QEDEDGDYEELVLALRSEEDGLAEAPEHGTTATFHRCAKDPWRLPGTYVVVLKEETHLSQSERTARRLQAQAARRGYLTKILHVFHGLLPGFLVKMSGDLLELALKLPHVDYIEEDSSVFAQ
- T1 sequence (Q8NBP7 other isoform, or with tags, fused parts or gaps mutant, chain 2 of 2): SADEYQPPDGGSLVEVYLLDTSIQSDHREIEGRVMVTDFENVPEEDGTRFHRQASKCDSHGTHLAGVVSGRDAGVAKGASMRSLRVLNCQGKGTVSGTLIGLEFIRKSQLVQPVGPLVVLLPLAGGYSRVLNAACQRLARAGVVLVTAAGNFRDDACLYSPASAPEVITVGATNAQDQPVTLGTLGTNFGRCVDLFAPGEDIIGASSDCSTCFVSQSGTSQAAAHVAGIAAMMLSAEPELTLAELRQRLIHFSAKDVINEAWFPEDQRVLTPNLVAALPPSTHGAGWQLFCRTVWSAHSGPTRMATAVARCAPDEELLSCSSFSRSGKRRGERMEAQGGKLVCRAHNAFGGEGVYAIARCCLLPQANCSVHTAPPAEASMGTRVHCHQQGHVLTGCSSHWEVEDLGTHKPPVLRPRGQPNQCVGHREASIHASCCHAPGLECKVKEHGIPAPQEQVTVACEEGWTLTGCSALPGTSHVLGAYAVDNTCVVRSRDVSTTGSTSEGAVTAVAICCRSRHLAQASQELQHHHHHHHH
- Assay Text: TR-FRET competition; His-PCSK9Δhelix, competitor Ab20
Square brackets hold non-standard residues; d marks the D form. Ends that are not written are not given here. hArg = N=C(N)NCCCC[C@H](N)C(=O)O
Endpoint: IC50

{"columns": ["Binder", "IC50"],
 "data": [
  ["Ac-MESFPGWNLV[hArg]IGLLR-NH2 (SMILES CC[C@H](C)[C@H](NC(=O)[C@H](CCCCNC(=N)N)NC(=O)[C@@H](NC(=O)[C@H](CC(C)C)NC(=O)[C@H](CC(N)=O)NC(=O)[C@H](Cc1c[nH]c2ccccc12)NC(=O)CNC(=O)[C@@H]1CCCN1C(=O)[C@H](Cc1ccccc1)NC(=O)[C@H](CO)NC(=O)[C@H](CCC(=O)O)NC(=O)[C@H](CCSC)NC(C)=O)C(C)C)C(=O)NCC(=O)N[C@@H](CC(C)C)C(=O)N[C@@H](CC(C)C)C(=O)N[C@@H](CCCNC(=N)N)C(N)=O) [Compound 229]", "8100 nM"],
  ["WNLV[hArg]IGLLR (also: further groups not given here, Structure printed only as a drawing) [Compound 204]", "870 nM"],
  ["WNLV[hArg]IGLLR (also: further groups not given here, Structure printed only as a drawing) [Compound 226]", "350 nM"],
  ["Ac-DSYPGWNLV[hArg]IGLLR-NH2 (SMILES CC[C@H](C)[C@H](NC(=O)[C@H](CCCCNC(=N)N)NC(=O)[C@@H](NC(=O)[C@H](CC(C)C)NC(=O)[C@H](CC(N)=O)NC(=O)[C@H](Cc1c[nH]c2ccccc12)NC(=O)CNC(=O)[C@@H]1CCCN1C(=O)[C@H](Cc1ccc(O)cc1)NC(=O)[C@H](CO)NC(=O)[C@H](CC(=O)O)NC(C)=O)C(C)C)C(=O)NCC(=O)N[C@@H](CC(C)C)C(=O)N[C@@H](CC(C)C)C(=O)N[C@@H](CCCNC(=N)N)C(N)=O) [Compound 230]", "24000 nM"],
  ["WNLV[hArg]IGLLR (also: further groups not given here, Structure printed only as a drawing) [Compound 224]", "530 nM"]
]}

stdin: Please give the measured IC50 for this binder: WNLVRIGLLR (also: further groups not given here, Structure printed only as a drawing) [Compound 146]
stdout: 1700 nM

stdin: Please give the measured IC50 for this binder: WNLVRIGLTR (also: further groups not given here, Structure printed only as a drawing) [Compound 169]
stdout: 6800 nM
